Provide the reported CRE of each item.
Species on record: Rattus norvegicus
measurement_description: Open TG-GATES - Regimen: Daily Repeat
Format: toxicity, organism-based, Sprague-Dawley
Set-up: regimen Daily Repeat, gender Male, age 6 weeks
run_conditions: in vivo, po, 0 mg/kg, […], tissue Plasma, route gavage, dose level Control, time 7 day
Give bare numbers, in mg/dL.

See these solved cases before continuing.
compound: C[C@H]1C(=O)O[C@@H]2CCN3CC=C(COC(=O)[C@](C)(O)[C@]1(C)O)[C@H]23 [MONOCROTALINE]
u: mg/dL
CRE: 0.2
//
compound: Cc1cccc(C)c1OCC(C)N (centres undefined) [MEXILETINE]
u: mg/dL
CRE: 0.2

Give one value of CRE per listed compound.
1. C=C(C)[C@H]1Cc2c(ccc3c2O[C@@H]2COc4cc(OC)c(OC)cc4[C@@H]2C3=O)O1 [ROTENONE]
2. O=[N+]([O-])c1ccc(O)c([N+](=O)[O-])c1 [2,4-DINITROPHENOL]
3. CCOC(=O)C(C)(C)Oc1ccc(Cl)cc1 [CLOFIBRATE]
4. C[C@H]1O[C@H](O[C@H]2[C@H](O)[C@@H](O)[C@@H](O[C@H]3[C@H](O)[C@@H](O)C(O)O[C@@H]3CO)O[C@@H]2CO)[C@H](O)[C@@H](O)[C@@H]1N[C@H]1C=C(CO)[C@@H](O)[C@H](O)[C@H]1O (some centres undefined) [ACARBOSE]
5. O=C1CN(/N=C/c2ccc([N+](=O)[O-])o2)C(=O)N1 [NITROFURANTOIN]
6. OCCN1CCN(CCCN2c3ccccc3Sc3ccc(C(F)(F)F)cc32)CC1 [FLUPHENAZINE]
7. Cn1cc[nH]c1=S [METHIMAZOLE]

Response:
[0.4, 0.4, 0.4, 0.2, 0.4, 0.5, 0.2]
